Test: soluble fraction after stress (log2 fold change); higher = more stays soluble; pooled small domains, quantitative proteomics
Details: stress: 50 degC
experimental-readout: soluble fraction (log2)
Would you mind answering with just the numeric figure?

Recorded results for 2 sequences are shown here.
1) HMGEFVQLKNRTGSVIEAKILNYQNGKVKLQRKDGVIFVVPISIFDRMSSSIIENKAKEMDSF    0.00542
2) HMSREEFLTELRKALQGRVSQQTVNDNLRYYEEYILTESHKGKTEAEVIAELGNPRLLAKSIIDAENAT    0.107

The record that follows has no soluble fraction (log2) shown yet.
// fetch soluble fraction (log2) given entry `HMLNSISIKTNKKIDFLEKNEHLVNFVYEKETMEHIYNLSYENKKDLQELQNKLSDIEGIIKINTDL` 0.133
